Kindly supply the reported kon values for the records listed here.
Biological target: T1, human CD154 (human, UniProt P29965 113-261, limits assumed)
T1 construct: also called CD154 antigen; CD40L
T1 sequence (looked up): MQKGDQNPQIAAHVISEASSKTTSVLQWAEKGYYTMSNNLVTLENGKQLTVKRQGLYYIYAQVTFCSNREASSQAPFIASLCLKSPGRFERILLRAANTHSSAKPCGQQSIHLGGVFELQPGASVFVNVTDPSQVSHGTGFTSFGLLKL
Experiment: SPR, Biacore 3000, 25 C; antibody immobilized, CD154 antigen flowed over; average n = 6
Quick reminder: number only, in M⁻¹ s⁻¹, skip the unit.

Query string: Name the recorded kon for variant 22, humanized anti-human CD154 antibody derived from IDEC-131 (antibody, V domains shown) VH: EVQLQESGPGLVKPSETLSLTCTVSGDSITNGFWIWIRKPPGNKLEYMGYISYSGSTYYNPSLKSRISISRDTSKNQFSLKLSSVTAADTGVYYCAYRSYGRTPYYFDYWGQGTTLTVSS VL: DIVMTQSPSFLSASVGDRVTITCKASSNLGNAVAWYQQKPGKSPKLLIYSASNRYTGVPDRFSGSGSGTDFTLTISSLQPEDFADYFCQQYDDYPYTFGGGTKLEIK .
Result string: 4.48e+06

Query string: Let us now turn to variant 26, humanized anti-human CD154 antibody derived from IDEC-131 (antibody, V domains shown) VH: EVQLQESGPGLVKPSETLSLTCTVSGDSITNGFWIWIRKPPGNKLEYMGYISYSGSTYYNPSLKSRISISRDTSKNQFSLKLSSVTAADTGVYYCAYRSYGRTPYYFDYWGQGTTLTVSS VL: DIVMTQSPSFLSASVGDRVTITCKASQHLGTAVAWYQQKPGKSPKLLIYSASNRYTGVPDRFSGSGSGTDFTLTISSLQPEDFADYFCQQYDDYPYTFGGGTKLEIK
Result string: 2.03e+06

Query string: Record: IDEC-131, humanized anti-human CD154 IgG1 antibody (antibody, V domains shown, Humanized human IgG1 derived from mouse antibody 24-31) VH: EVQLQESGPGLVKPSETLSLTCTVSGDSITNGFWIWIRKPPGNKLEYMGYISYSGSTYYNPSLKSRISISRDTSKNQFSLKLSSVTAADTGVYYCACRSYGRTPYYFDFWGQGTTLTVSS VL: DIVMTQSPSFLSASVGDRVTITCKASQNVITAVAWYQQKPGKSPKLLIYSASNRYTGVPDRFSGSGSGTDFTLTISSLQPEDFADYFCQQYNSYPYTFGGGTKLEIK
Result string: 3.47e+06

Query string: Similarly, variant 23, humanized anti-human CD154 antibody derived from IDEC-131 (antibody, V domains shown, also called combination #23) VH: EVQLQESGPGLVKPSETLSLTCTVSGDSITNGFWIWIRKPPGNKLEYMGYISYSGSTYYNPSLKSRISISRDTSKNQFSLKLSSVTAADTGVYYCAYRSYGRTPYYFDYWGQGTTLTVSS VL: DIVMTQSPSFLSASVGDRVTITCKGSSPLGHAVAWYQQKPGKSPKLLIYSASNRYTGVPDRFSGSGSGTDFTLTISSLQPEDFADYFCQQYDDYPYTFGGGTKLEIK ?
Result string: 3.35e+06

Query string: What do we get for variant 31, humanized anti-human CD154 antibody derived from IDEC-131 (antibody, V domains shown) VH: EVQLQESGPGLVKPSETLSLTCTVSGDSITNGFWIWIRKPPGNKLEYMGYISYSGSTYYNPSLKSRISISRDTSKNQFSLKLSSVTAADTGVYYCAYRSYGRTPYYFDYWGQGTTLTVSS VL: DIVMTQSPSFLSASVGDRVTITCKANQPLGHAVAWYQQKPGKSPKLLIYSASNRYTGVPDRFSGSGSGTDFTLTISSLQPEDFADYFCQQYDDYPYTFGGGTKLEIK ?
Result string: 3.61e+06

Ref: patent US20180193454A1
